molecular target: Cytochrome P450 2C19 (Homo sapiens); assay: Cytochrome panel assay with activity outcomes; details: recombinant CYP, pro-luciferin dealkylation, luminescence, p450-cyp2c19; series mostly up to 57.1 µM
In all, about 16,000 compounds went through this assay and about 5,800 (36%) were called active. Another 23% or so got no clear call; they are omitted. The call rests on the fitted dose curve; in most records, active means well fitted curve in the direction sought with a large enough effect; inconclusive means small, poorly fitted or top-dose-only effect, or effect the other way; inactive means no such curve, though single readings can be large or run the other way. The list shows a part of the results.
Write down the outcome that applies. Available outcomes: active, inactive

Example entries and their recorded answers appear below.
- COc1ccccc1-c1nccc(NCc2cccnc2)n1: active
- O=C(O)c1cc(=O)c2ccc(Cl)cc2[nH]1: inactive
- Cc1ccc(OCCCOc2cccc3cccnc23)cc1C: active
- Clc1ccc(CO[C@@H](Cn2ccnc2)c2ccc(Cl)cc2Cl)cc1: active
- Cc1noc(C)c1-c1nccc(NCc2cccnc2)n1: active
- O=C(Nc1cccc(-c2nc3ncccc3o2)c1)c1sc2cc(Cl)ccc2c1Cl: inactive
- CN(C)Cc1ccccc1-c1nccc(N(C)Cc2ccco2)n1: inactive
- CCCCCCCCCCCCC(=O)N1CCCC[C@H]1CNC(=O)[C@@H](N)CCCCN: active

Record request — test call for "CN(Cc1ccco1)c1ccnc(-c2ccccc2C(F)(F)F)n1"
active

What do we get for "COc1ccc(Oc2ncc3nc(-c4cn(C)c5ccccc45)c(=O)n(C)c3n2)cc1" ?
inactive

Can you handle Cc1nn(C(C)C(=O)Nc2ccc(Cl)cn2)c(C)c1[N+](=O)[O-] (centres undefined) next?
active

Consider next the compound "C[C@@H]1O[C@@H](n2cc(F)c(=O)[nH]c2=O)[C@H](O)[C@@H]1O" in the same way.
inactive

Try this compound too: "Clc1cccc(C=NC=Nc2cccc(Cl)c2)c1"
active

Okay, and "NC(=S)c1ccc[n+]([C@@H]2O[C@@H](COP(=O)([O-])OP(=O)(O)OC[C@@H]3O[C@@H](n4cnc5c(N)ncnc54)[C@@H](OP(=O)(O)O)[C@H]3O)[C@@H](O)[C@H]2O)c1" ?
inactive

Please do the same for "CC(C)CCn1c(Oc2ccccc2Cl)nc2c1c(=O)n(C)c(=O)n2C" as well.
active

---

molecular target: Cytochrome P450 2C19 (Homo sapiens) (UniProt P33261); experiment: Cytochrome panel assay with activity outcomes; conditions: recombinant CYP, pro-luciferin dealkylation, luminescence, p450-cyp2c19; series mostly up to 57.1 µM; on activity, negative = inhibition: on the % scale 0 is the no-effect control and ±100 the full control effect
Sequence (P33261 whole entry, looked up): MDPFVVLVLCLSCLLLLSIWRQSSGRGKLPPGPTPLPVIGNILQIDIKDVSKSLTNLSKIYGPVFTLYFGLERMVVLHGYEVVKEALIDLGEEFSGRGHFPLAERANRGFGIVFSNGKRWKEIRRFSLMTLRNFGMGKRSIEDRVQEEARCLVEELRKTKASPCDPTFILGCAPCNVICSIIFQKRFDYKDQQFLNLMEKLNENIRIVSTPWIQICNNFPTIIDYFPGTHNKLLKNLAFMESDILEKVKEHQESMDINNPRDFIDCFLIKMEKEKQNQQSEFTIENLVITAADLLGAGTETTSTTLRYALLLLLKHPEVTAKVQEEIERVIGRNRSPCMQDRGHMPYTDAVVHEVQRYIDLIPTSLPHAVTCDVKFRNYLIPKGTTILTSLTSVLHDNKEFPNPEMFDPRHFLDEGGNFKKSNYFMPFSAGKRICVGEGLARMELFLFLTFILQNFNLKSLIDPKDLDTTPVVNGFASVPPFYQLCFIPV
The campaign covered roughly 16,000 compounds. About 5,800 (36%) were called active. Inconclusive results (about 23%) are left out. The list shows a part of the results.
Quick list: activity, negative = inhibition per entry.

For orientation, consider the following solved cases.
* C=C1C=C(Br)C2(OCCCO2)[C@H]2OC12 (stereo not given in full) | 18% [at 11.4 µM] (inactive)
* O=C(O)[C@@H]1CCCN1 | 19.4% [at 11.4 µM] (inactive)
* COc1cccc([C@H](O)Cn2cc(-c3cccc(CON=C(C)C)c3)nn2)c1 | -19.8% [at 11.4 µM] (inactive)
* C=CC[C@@H]1C=C[C@H](ON=C(C)C)[C@H](CO)O1 | -4.34% [at 11.4 µM] (inactive)

Shifting focus to the molecule that follows.
Recall the recorded activity, negative = inhibition for "C[C@@]1(C(=O)O)CCC[C@@H]1C(=O)O" with Cytochrome P450 2C19 (Homo sapiens) (UniProt P33261) and state it.
40% [at 11.4 µM] (inactive)

---

biological target: Cytochrome P450 2C19 (Homo sapiens) (UniProt P33261); test: Cytochrome panel assay with activity outcomes; details: recombinant CYP, pro-luciferin dealkylation, luminescence, p450-cyp2c19; series mostly up to 57.1 µM
The whole screen tested about 16,000 compounds, of which about 5,800 (36%) were called active. Not shown: some 23% with an inconclusive outcome. Calls come from the whole dose curve; as a rule, active = well fitted curve in the direction sought with a large enough effect; inconclusive = small, poorly fitted or top-dose-only effect, or effect the other way; inactive = no such curve, though single readings can be large or run the other way. Some of the results follow.
Choose one outcome from this list and give only that: true (1) (active), false (0) (inactive)

• Nc1nc(Cl)cc(N2CCC(c3cc(-c4ccc(Cl)cc4Cl)n[nH]3)CC2)n1 = true (1)
• NC1CCN(c2cccc(Cl)n2)CC1 = false (0)

State the result this test recorded for "Cc1ccccc1CSc1nccn1-c1ccccc1" .
true (1)

Same thing, different molecule: "Cc1ccc(S(=O)(=O)N2CCN(Cc3ccccc3C(F)(F)F)CC2)cc1"
true (1)

How about O=C(NCC1CCCO1)c1cc(-c2ccc(Cl)cc2Cl)on1 (centres undefined) ?
true (1)

Same for "COc1ccc(NS(=O)(=O)c2cc(-c3nnnn3C)ccc2OC)cc1"
true (1)

Consider next the molecule "CN(CCOc1ccc(C[C@H](Nc2ccccc2C(=O)c2ccccc2)C(=O)O)cc1)c1ccccn1" in the same way.
true (1)

What about this molecule? "CC(C)(C)NS(=O)(=O)c1ccc(NS(=O)(=O)c2ccc(F)cc2)cc1"
false (0)

Then what about the molecule "Nc1nc(-c2ccccc2)c(-c2ccccc2)s1" ?
true (1)

Please give the result for Cc1ccccc1C(=O)c1c[nH]c(C(=O)NCC2CCCO2)c1 (centres undefined) too.
true (1)

Also "COc1ccc(CNc2ncncc2-c2ccc(N(C)C)cc2)c(OC)c1" ?
true (1)

Also check "COc1ccc2nc(SCC(=O)NN)cc(C)c2c1"
false (0)

And what about the molecule "c1ccc(C(c2ccccc2)N2CCCC3(CCNCC3)C2)cc1" ?
false (0)

Same lookup for "O=C(COc1ccc(Cl)cc1)NCCC1=CCCCC1" , please.
true (1)

Same question, "COc1ccc2nc(C)cc(SCC(=O)NNC(=O)COc3ccc(C)cc3)c2c1" this time
true (1)

What do we get for "Nc1ccc(-c2sc(N)nc2-c2ccccc2)cc1" ?
true (1)

Now this one: "Clc1ccc(CSc2nccn2Cc2ccccc2)cc1"
true (1)

Same thing, different molecule: "Cn1c(=O)c2[nH]c(-c3ccccc3)nc2n(C)c1=O"
false (0)

Thanks! And "Cc1ccc(S(=O)(=O)N2CCN(S(C)(=O)=O)C2)cc1" ?
true (1)

---

biological target: Cytochrome P450 2C19 (Homo sapiens) (UniProt P33261); assay: Cytochrome panel assay with activity outcomes; conditions: recombinant CYP, pro-luciferin dealkylation, luminescence, p450-cyp2c19; series mostly up to 57.1 µM
Among all 16,000 compounds or so, about 5,800 (36%) were called active. About 23% were inconclusive and are not listed. The call rests on the fitted dose curve; in most records, active means well fitted curve in the direction sought with a large enough effect; inconclusive means small, poorly fitted or top-dose-only effect, or effect the other way; inactive means no such curve, though single readings can be large or run the other way. The list shows a part of the results.
Respond only with the outcome that fits, drawn from active, inactive

These recorded examples may help you get a feel for the data.
• COc1ccc(C(=O)NCC(c2ccc(F)cc2)N2CCOCC2)cc1S(=O)(=O)N1CCCC1 (stereo not drawn) = active
• O=C(c1cc(C(F)(F)F)cc(C(F)(F)F)c1)N1CCC2(CC1)CN(c1ccccc1)C2 = inactive
• CCOC(=O)N1CCN(C(=O)C(C)SCc2ccccc2)CC1 (stereo not drawn) = inactive
• CS(=O)(=O)N1CCC2(CC1)CN(Cc1nccs1)C2 = inactive
• CCOC(=O)N1CCN(C(=O)c2cnc3n(c2=O)CCS3)CC1 = inactive

Which outcome was assigned to "CCCCOc1ccc(C(=O)N/C(=C\c2ccc(OC)cc2)C(=O)OCc2ccco2)cc1" in this test?
active

Similarly, "Cc1sc(NC(=O)C(C)C)c(C(=O)Nc2ccccc2)c1C" ?
active

Now the compound "CN(C)Cc1ccccc1-c1ccc2ncnc(N(C)C)c2c1"
inactive

Try this compound next: "CC(C)Oc1cccc(-n2c(CCc3c[nH]c4ccc(Br)cc34)nc3ccccc3c2=O)c1"
inactive

For "CC(C)C(=O)Nc1ccc(Sc2ccc(F)cc2)cc1" then?
active

Now try "Cc1ccccc1-c1ccc2ncnc(N(C)C)c2c1" .
active

Please answer likewise for "CN(C)c1ncnc2ccc(-c3ccccc3C(F)(F)F)cc12"
active

How about "Cn1c(=O)n(C)c2cc(/C=N/n3cnnc3)ccc21" ?
active

---

molecular target: Cytochrome P450 2C19 (Homo sapiens) (UniProt P33261); assay: Cytochrome panel assay with activity outcomes; conditions: recombinant CYP, pro-luciferin dealkylation, luminescence, p450-cyp2c19; series mostly up to 57.1 µM
Screen size: about 16,000 compounds; about 5,800 (36%) were called active. Roughly 23% stayed inconclusive and do not appear here. The list shows a part of the results.
property-label: AC50

* CC(=O)OCC1=C(C(=O)O)N2C(=O)[C@@H](NC(=O)CSc3ccncc3)[C@@H]2SC1 | inactive
* COC(=O)[C@@]1(Cc2ccc(OC)cc2)[C@H]2c3cc(C(=O)N4CCCC4)n(Cc4ccc(Cl)c(C(F)(F)F)c4)c3C[C@H]2CN1C(=O)c1ccccc1 | inactive
* c1ccc2nc(-c3ccncc3)ccc2c1 | 3.55 µM (active)

---

molecular target: Cytochrome P450 2C19 (Homo sapiens) (UniProt P33261); experiment: Cytochrome panel assay with activity outcomes; settings: recombinant CYP, pro-luciferin dealkylation, luminescence, p450-cyp2c19; series mostly up to 57.1 µM
About 5,800 (36%) of roughly 16,000 compounds were called active. Another 23% or so got no clear call; they are omitted. Calls follow the shape of the dose curve; as a rule, active = well fitted curve in the direction sought with a large enough effect; inconclusive = small, poorly fitted or top-dose-only effect, or effect the other way; inactive = no such curve, though single readings can be large or run the other way. The list shows a part of the results.
Give your call using only these classes: 1.0 for active, 0.0 for inactive

// below: answered compounds
• CC(C)(C)NC(=O)C(=O)N/N=C/c1ccc(Br)cc1 = 1.0
• CCOC(=O)c1ccc(Cl)c(NC(=O)c2ccc(-c3ccccc3)cc2)c1 = 0.0
• CN1CCN(S(=O)(=O)c2cc([N+](=O)[O-])ccc2N2CCCCCC2)CC1 = 1.0

What did the test return for "Cc1ccc(Cc2cnc(NC(=O)c3cccs3)s2)cc1" ?
1.0

Would you mind doing "CN(C)c1ccc(-c2cncnc2NCCc2cnc[nH]2)cc1" as well?
1.0

What do you get for "C=CCNCCCCOc1c(Cl)cc(C)cc1Br" ?
1.0

Also "Cc1cc(Br)cc(C)c1OCCCCN(C)C" , if possible.
0.0

And what about the compound "COCC(=O)N1CCC2(CCCN(Cc3ccccc3)C2)CC1" ?
0.0

Likewise for "CCCCN(C)Cc1c(C)[nH]c2ccc(Cl)cc2c1=O" ?
0.0

Consider next the compound "Cc1ccc(-c2nnc(-c3ccc(NC(=O)c4cccs4)cc3)o2)cc1" in the same way.
1.0

Then this compound: "CCc1sc(N(C(=O)Cc2ccccc2)c2cccc(F)c2)nc1-c1ccc(C)cc1"
1.0

Likewise for "O=C(O)/C=C/C(=O)Nc1ccccc1-c1ccccc1" ?
0.0
